Tested on: L. acidophilus NCFM
Assay: RNA-seq transcriptional analysis of L. acidophilus NCFM growing on plant glycosides
Format: cell-based, Lactobacillus acidophilus
Conditions: LBA1872 Oligo-1,6-glucosidase, COG G
metricName: Log2 differential normalized TPM ratio compared to glucose

{"compoundStructure": "O=c1ccc2cc(O[C@@H]3O[C@H](CO)[C@@H](O)[C@H](O)[C@H]3O)c(O)cc2o1", "experimentalResult": 1}
{"compoundStructure": "N#C[C@H](O[C@@H]1O[C@H](CO[C@@H]2O[C@H](CO)[C@@H](O)[C@H](O)[C@H]2O)[C@@H](O)[C@H](O)[C@H]1O)c1ccccc1", "experimentalResult": 3.6}
{"compoundStructure": "OC[C@H]1O[C@@H](O[C@H]2[C@H](O)[C@@H](O)[C@@H](O)O[C@@H]2CO)[C@H](O)[C@@H](O)[C@H]1O", "experimentalResult": 0.4}
{"compoundStructure": "OCc1ccccc1O[C@@H]1O[C@H](CO)[C@@H](O)[C@H](O)[C@H]1O", "experimentalResult": 1}
